Data credit: patent US20130072519A1

- Test system: Apolipoprotein B Secretion from HepG2 Cells
- EXPERIMENT SUMMARY: Inhibition of Apolipoprotein B secretion from HepG2 cells (ELISA)
- Assay type: cell-based, human
- MEASUREMENT CONDITIONS: Homo sapiens, HepG2, HepG2 cells, 22-24 hours incubation, ApoB ELISA; Low/High IC50 columns give the 95% confidence interval
pIC50: −log10 of the molar value.
Everything with pIC50 lower than 9 is false (0); everything else, including exactly 9, is true (1).

Would you please look over these solved cases?
>>> class_name("CCOC(=O)[C@]1(COC(=O)Cc2ccc(NC(=O)c3ccccc3-c3ccc(OC(C)C)cc3)c(C(=O)N(C)C)c2)c2ccccc2C(=O)N1C")
"true (1)"
>>> class_name("CCOC(=O)C1(COC(=O)Cc2ccc(NC(=O)c3cccc(C)c3-c3ccc(C(C)C)cc3)c(C(=O)N(C)C)c2)c2ccccc2C(=O)N1C (centres unmarked)")
"true (1)"
>>> class_name("Cc1cccc(C(=O)Nc2ccc(CC(=O)OCC3(C(=O)OCc4ccccc4)c4ccccc4C(=O)N3C)cc2C(=O)N(C)C)c1-c1ccc(C(F)(F)F)cc1 (racemic)")
"true (1)"

// query Record CCOC(=O)[C@]1(COC(=O)Cc2ccc(NC(=O)c3cccc(OC)c3-c3ccc(C(F)(F)F)cc3)c(C(=O)N(C)C)c2)c2ccccc2C(=O)N1C ; criterion: pIC50 no lower than 9. Met?
// result true (1)

// query Record CCOC(=O)[C@]1(COC(=O)Cc2ccc(NC(=O)c3ccccc3-c3ccccc3OC)c(C(=O)N(C)C)c2)c2ccccc2C(=O)N1C ; criterion: pIC50 no lower than 9. Met?
// result false (0)

// query Record COC(=O)C1(COC(=O)Cc2ccc(NC(=O)c3ccccc3-c3ccc(C(F)(F)F)cc3)c(C(=O)N(C)C)c2)CCc2ccccc21 (centres unmarked) [Example 33] ; criterion: pIC50 no lower than 9. Met?
// result false (0)

* * *

- EXPERIMENT SUMMARY: Human intestinal microsomal stability
- Assay type: in vitro ADME
- MEASUREMENT CONDITIONS: Human Intestinal Microsomes 0.76 mg/mL, 1 μM compound, 37° C., pH 7.4, 4 min
// values below are reported Compound remaining (%) at 4 min
Write the number in % without appending the unit.

// query Fill blank: measured Compound remaining (%) at 4 min of the molecule CCOC(=O)C1(COC(=O)Cc2ccc(NC(=O)c3cccc(OC)c3-c3ccc(C(F)(F)F)cc3)c(C(=O)N(C)C)c2)CCc2cccnc21 (single isomer, unassigned) [Example 61] is ____.
// result 106

// query Fill blank: measured Compound remaining (%) at 4 min of the molecule CCOC(=O)[C@]1(COC(=O)Cc2ccc(NC(=O)c3ccc(C)cc3-c3ccc(OC(C)C)cc3)c(C(=O)N(C)C)c2)c2ccccc2C(=O)N1C [Example 72] is ____.
// result 125

// query Fill blank: measured Compound remaining (%) at 4 min of the molecule CCOC(=O)[C@]1(COC(=O)Cc2ccc(NC(=O)c3ccc(OC)cc3-c3ccc(C(F)(F)F)cc3)c(C(=O)N(C)C)c2)c2ccccc2C(=O)N1C [Example 70] is ____.
// result 98

// query Fill blank: measured Compound remaining (%) at 4 min of the molecule CCOC(=O)C1(COC(=O)Cc2ccc(NC(=O)c3ccc(C)cc3-c3ccc(C(F)(F)F)cc3)c(C(=O)N(C)C)c2)c2ccccc2C(=O)N1C (single isomer, unassigned) [Example 56] is ____.
// result 100

* * *

- Tested on: Apolipoprotein B Secretion from HepG2 Cells
- EXPERIMENT SUMMARY: Inhibition of Apolipoprotein B secretion from HepG2 cells (ELISA)
- Assay type: cell-based, human
- MEASUREMENT CONDITIONS: Homo sapiens, HepG2, HepG2 cells, 22-24 hours incubation, ApoB ELISA; Low/High IC50 columns give the 95% confidence interval
// values below are reported IC50
Write the number in nM without appending the unit.

>>> recorded_number("CCOC(=O)C1(COC(=O)Cc2ccc(NC(=O)c3cccc(OC)c3-c3ccc(C(F)(F)F)cc3)c(C(=O)N(C)C)c2)CCc2cccnc21 (single isomer, unassigned)")
0.395
>>> recorded_number("CCOC(=O)C1(COC(=O)Cc2ccc(NC(=O)c3cccc(C)c3-c3ccc(OC(C)C)cc3)c(C(=O)N(C)C)c2)c2ccccc2C(=O)N1C (centres unmarked)")
0.159
>>> recorded_number("CCOC(=O)C1(COC(=O)Cc2ccc(NC(=O)c3ccccc3-c3ccc(OC(C)C)cc3)c(C(=O)N(C)C)c2)CCc2cccnc21 (single isomer, unassigned)")
0.535
>>> recorded_number("CCOC(=O)C1(COC(=O)Cc2ccc(NC(=O)c3ccc(C)cc3-c3ccc(C(F)(F)F)cc3)c(C(=O)N(C)C)c2)CCc2cccnc21 (single isomer, unassigned)")
0.712

Let us examine a further case.
// query Fill blank: measured IC50 of the compound CCOC(=O)C1(COC(=O)Cc2ccc(NC(=O)c3ccccc3-c3ccc(C(F)(F)F)cc3)c(C(=O)N(C)C)c2)c2ccccc2C(=O)N1Cc1ccc(OC)cc1OC (racemic) is ____.
// result 30.8

* * *

- EXPERIMENT SUMMARY: Human liver microsomal stability
- Assay type: in vitro ADME
- MEASUREMENT CONDITIONS: Human Liver Microsomes 0.76 mg/mL, 1 μM compound, 37° C., pH 7.4, 30 min
ATTRIBUTE MEASURED: Compound remaining (%) at 30 min
Write the number in % without appending the unit.

>>> recorded_number("CCOC(=O)[C@]1(COC(=O)Cc2ccc(NC(=O)c3cccc(C)c3-c3ccc(C(F)(F)F)cc3)c(C(=O)N(C)C)c2)c2ccccc2C(=O)N1C")
2.7
>>> recorded_number("CCOC(=O)[C@]1(COC(=O)Cc2ccc(NC(=O)c3cccc(OC)c3-c3ccc(C(F)(F)F)cc3)c(C(=O)N(C)C)c2)c2ccccc2C(=O)N1C")
5.3
>>> recorded_number("CCOC(=O)C1(COC(=O)Cc2ccc(NC(=O)c3ccc(C)cc3-c3ccc(C(F)(F)F)cc3)c(C(=O)N(C)C)c2)c2ccccc2C(=O)N1C (single isomer, unassigned)")
3
>>> recorded_number("CCOC(=O)C1(COC(=O)Cc2ccc(NC(=O)c3ccccc3-c3ccc(OC(C)C)cc3)c(C(=O)N(C)C)c2)CCc2cccnc21 (single isomer, unassigned)")
8.5
>>> recorded_number("CCOC(=O)[C@]1(COC(=O)Cc2ccc(NC(=O)c3ccccc3-c3ccc(OC(C)C)cc3)c(C(=O)N(C)C)c2)c2ccccc2C(=O)N1C")
3.7
>>> recorded_number("CCOC(=O)[C@]1(COC(=O)Cc2ccc(NC(=O)c3ccc(OC)cc3-c3ccc(C(F)(F)F)cc3)c(C(=O)N(C)C)c2)c2ccccc2C(=O)N1C")
6.4
>>> recorded_number("CCOC(=O)[C@]1(COC(=O)Cc2ccc(NC(=O)c3ccc(C)cc3-c3ccc(OC(C)C)cc3)c(C(=O)N(C)C)c2)c2ccccc2C(=O)N1C")
9.2
>>> recorded_number("CCOC(=O)C1(COC(=O)Cc2ccc(NC(=O)c3ccc(C)cc3-c3ccc(C(F)(F)F)cc3)c(C(=O)N(C)C)c2)CCc2cccnc21 (single isomer, unassigned)")
1.1

// query Fill blank: measured Compound remaining (%) at 30 min of the molecule CCOC(=O)C1(COC(=O)Cc2ccc(NC(=O)c3cccc(OC)c3-c3ccc(C(F)(F)F)cc3)c(C(=O)N(C)C)c2)CCc2cccnc21 (single isomer, unassigned) is ____.
// result 4.7

* * *

- EXPERIMENT SUMMARY: Human intestinal microsomal stability
- Type: in vitro ADME
- MEASUREMENT CONDITIONS: Human Intestinal Microsomes 0.76 mg/mL, 1 μM compound, 37° C., pH 7.4, 30 min
ATTRIBUTE MEASURED: Compound remaining (%) at 30 min
Write the number in % without appending the unit.

// worked examples, Compound remaining (%) at 30 min included
>>> recorded_number("CCOC(=O)[C@]1(COC(=O)Cc2ccc(NC(=O)c3cccc(OC)c3-c3ccc(C(F)(F)F)cc3)c(C(=O)N(C)C)c2)c2ccccc2C(=O)N1C")
94
>>> recorded_number("CCOC(=O)C1(COC(=O)Cc2ccc(NC(=O)c3ccccc3-c3ccc(OC(C)C)cc3)c(C(=O)N(C)C)c2)CCc2cccnc21 (single isomer, unassigned)")
100
>>> recorded_number("CCOC(=O)[C@]1(COC(=O)Cc2ccc(NC(=O)c3ccc(OC)cc3-c3ccc(C(F)(F)F)cc3)c(C(=O)N(C)C)c2)c2ccccc2C(=O)N1C")
96
>>> recorded_number("CCOC(=O)C1(COC(=O)Cc2ccc(NC(=O)c3ccc(C)cc3-c3ccc(C(F)(F)F)cc3)c(C(=O)N(C)C)c2)c2ccccc2C(=O)N1C (single isomer, unassigned)")
87
>>> recorded_number("CCOC(=O)[C@]1(COC(=O)Cc2ccc(NC(=O)c3ccccc3-c3ccc(OC(C)C)cc3)c(C(=O)N(C)C)c2)c2ccccc2C(=O)N1C")
92
>>> recorded_number("CCOC(=O)C1(COC(=O)Cc2ccc(NC(=O)c3cccc(OC)c3-c3ccc(C(F)(F)F)cc3)c(C(=O)N(C)C)c2)CCc2cccnc21 (single isomer, unassigned)")
106

// query Fill blank: measured Compound remaining (%) at 30 min of the compound CCOC(=O)[C@]1(COC(=O)Cc2ccc(NC(=O)c3cccc(C)c3-c3ccc(C(F)(F)F)cc3)c(C(=O)N(C)C)c2)c2ccccc2C(=O)N1C is ____.
// result 83

// query Fill blank: measured Compound remaining (%) at 30 min of the compound CCOC(=O)[C@]1(COC(=O)Cc2ccc(NC(=O)c3ccc(C)cc3-c3ccc(OC(C)C)cc3)c(C(=O)N(C)C)c2)c2ccccc2C(=O)N1C is ____.
// result 100
